Could you please report measured TGI for the items listed next?
- Tested on: MCF7 breast
- test.name: NCI tumour cell line growth inhibition, 48 h

Which TGI value belongs to `COc1cc(/C=N/c2ccccn2)cc(OC)c1OC` ?
> 100 µM

Subsequent entry: CC(C)CC(NP(=O)(O)OC1OC(C)C(O)C(O)C1O)C(=O)NC(Cc1c[nH]c2ccccc12)C(=O)O (configuration not stated)
> 100 µM

Subsequent entry: `ClCc1ccc(Cn2cnc3c(Cl)ncnc32)cc1`
55.7 µM

Subsequent entry: `NC(=O)c1nnsc1NN=O`
> 100 µM

Subsequent entry: `Cc1cc(S(=O)(=O)Nc2n[nH]c(Nc3ccc4ccccc4c3)n2)c(S)cc1Cl`
> 100 µM

Subsequent entry: `COc1cc(/C=C/C(=O)/C=C/c2cc3ccc(Cl)cc3n(Cc3ccccc3)c2=O)ccc1O`
12.3 µM

Subsequent entry: CC(C)CCC[C@@H](C)C1CCC2[C@@H]3CCC4C[C@@H](NS(C)(=O)=O)CC[C@]4(C)C3CC[C@@]21C (some centres not stated)
> 100 µM

Subsequent entry: CC(=O)C1(C)CC(C#N)(C#N)C(C#N)=C1N (configuration not stated)
> 100 µM

Subsequent entry: `Cc1ccc(Cl)cc1NC(=O)c1cc2ccccc2cc1O`
4.88 µM

Subsequent entry: CC(=O)OCC1OC(n2c(N)c(C#N)c(C)c(C#N)c2=S)C(OC(C)=O)C(OC(C)=O)C1OC(C)=O (configuration not stated)
> 100 µM

Subsequent entry: `COc1cc(/C=C/C(=O)N2CCC=CC2=O)cc(OC)c1OC`
13.9 µM

Subsequent entry: `Cc1nc(-c2cnc(NC(C)C)n(C)c2=O)ccc1Oc1ccnc(-c2cnn(C)c2)c1`
> 100 µM

Subsequent entry: `Nc1cc(S(=O)(=O)O)cc2ccc(S(=O)(=O)O)cc12`
> 100 µM

Subsequent entry: CC(C)[Si]1(C(C)C)OCC2OC(n3c(C(=O)c4ccccc4)cc(=O)[nH]c3=O)CC2O[Si](C(C)C)(C(C)C)O1 (configuration not stated)
8.14 µM

Subsequent entry: COc1cc(COC(=O)N2CC=CC2C(=O)O)c([N+](=O)[O-])cc1OC (configuration not stated)
> 100 µM

Subsequent entry: `COC(=O)n1c(C)c(C=O)c2ccc(OC)cc21`
88.2 µM

Subsequent entry: O=C(c1ccccc1)c1ccc2c(c1)nc1n2C(c2c(F)cccc2F)SC1 (configuration not stated)
> 100 µM

Subsequent entry: `O=S(=O)(c1ccccc1)N1CN2CN(C1)CN(S(=O)(=O)c1ccccc1)C2`
> 100 µM

Subsequent entry: `OCCCSCCO`
> 100 µM

Subsequent entry: `Clc1ccc2ncc(-c3cccc(NC4CNC4)n3)n2c1`
52.3 µM

Subsequent entry: CC1=CC(O)C(C(O)(C(F)(F)F)C(F)(F)F)C(C)(C)C1 (configuration not stated)
> 10 µM

Subsequent entry: `N#Cc1ncn(CCO)c1N`
> 100 µM

----------
Could you please report measured TGI for the items listed next?
- Tested on: OVCAR-3 ovarian
- test.name: NCI tumour cell line growth inhibition, 48 h

Param readout = TGI; param system = OVCAR-3 ovarian; param query = CCN(CC)CCC(CNc1ccnc2cc(Cl)ccc12)c1ccccc1 (stereo not drawn) ; response: value
> 100 µM

Subsequent entry: `CCCCNC(=NCc1ccccc1)NC#N`
> 100 µM

Subsequent entry: `CCN(CC)C(=S)SC1C(=O)NC(=O)NC1=O`
> 100 µM

Subsequent entry: `Cc1ccc2nc(-c3ccc(NC(=O)c4ccc(N)cc4)c(S(=O)(=O)O)c3)sc2c1`
> 100 µM

Subsequent entry: `O=C(Cc1ccc([N+](=O)[O-])c([N+](=O)[O-])c1CC(=O)C(=O)Nc1cc(Cl)ccc1Cl)C(=O)Nc1cc(Cl)ccc1Cl`
> 100 µM

Subsequent entry: `COc1cc(OC)c2c(=O)c3c([N+](=O)[O-])cccc3n(C)c2c1`
> 100 µM

Subsequent entry: `CC/C(=N/O)c1ccc2[nH]c3c(C)cc([N+](=O)[O-])c(C)c3c2c1`
> 100 µM

Subsequent entry: Cc1cc(C)c2c(=O)n(CC(O)CN3CCN(CCOCCO)CC3)sc2n1 (stereo not drawn)
41.3 µM

Subsequent entry: `O=C(Nc1ccccc1C(F)(F)F)c1ccc(NC2=C(Cl)C(=O)N(Cc3ccccc3)C2=O)cc1`
76.9 µM

Subsequent entry: `O=c1c2ccccc2nc(-c2ccccc2Cl)n1-c1nnc(C(F)(F)F)s1`
11.4 µM

Subsequent entry: `COc1ccccc1-n1c(NN)nc2ccc(Br)cc2c1=O`
> 100 µM

Subsequent entry: C[N+]1(CCC(=O)c2ccccc2)CCC2CCC(C2)C1 (stereo not drawn)
> 100 µM

Subsequent entry: `O=C(Nc1ccc(-n2ccc3c(NC(=O)c4ccccc4)nccc32)cc1)Nc1cccc(C(F)(F)F)c1`
7.15 µM

Subsequent entry: CN(C)C=NC1CCC(C(C)(C)C)CC1 (stereo not drawn)
28.8 µM

Subsequent entry: `O=C(O)c1c(Cl)c(Cl)c(Cl)c(Cl)c1C(=O)Nc1ccc2cn[nH]c2c1`
> 100 µM

Subsequent entry: CC(C)N(C(=O)C12C3C4C1C1C2C3C41I)C(C)C (stereo not drawn)
> 100 µM

Subsequent entry: `NS(=O)(=O)c1nnc(NC(=O)c2cccc([N+](=O)[O-])c2)s1`
> 100 µM

Subsequent entry: `O=C(Cc1csc2nc(-c3ccc(Cl)cc3)cn12)N/N=C/c1ccccc1O`
83.8 µM

Subsequent entry: O=[N+]([O-])c1ccc(C2=NOC(c3ccc(Cl)cc3)N2C23CC4CC(CC(C4)C2)C3)cc1 (stereo not drawn)
> 100 µM

Subsequent entry: COC(=O)C1C(=O)O[C@@H](c2ccc(OC)c(OC)c2OC)C1C(=O)OC (mixture of isomers)
> 100 µM

Subsequent entry: `CC(C)(C)NC(=O)[C@H]1CC[C@H]2[C@@H]3CC[C@H]4NC(=O)C=C[C@]4(C)[C@H]3CC[C@]12C`
> 100 µM

Subsequent entry: `Nc1nnnc2nc[nH]c12`
> 100 µM

Subsequent entry: `CCOC(=O)c1nc2ccccc2nc1Nc1ccc(OC)cc1`
70.4 µM

Subsequent entry: C[C@@H]1CCC2C(C)(C)C(/C=C\C=O)C3(C)OC213 (stereo partly drawn)
> 100 µM

Subsequent entry: `Cc1cc(C)c2c(c1)N[S@@](=O)S2`
39 µM

Subsequent entry: `ClCc1ccc(Cn2cnc3c(Cl)ncnc32)cc1`
18.5 µM

Subsequent entry: `CCCCOCOc1ccccc1P1(=O)COc2ccccc2OC1`
> 100 µM

Subsequent entry: NC(Cc1c[nH]c2ccc(F)cc12)C(=O)O (stereo not drawn)
> 2500 µM

Subsequent entry: `Cc1c(-c2ccc(O)cc2)oc(=O)c2ccc(O)cc12`
> 100 µM

Subsequent entry: `O=C(CCl)Nc1cc(Cl)c(Cl)cc1Cl`
3.31 µM

Subsequent entry: `CCOC(=O)c1nc2ccc(C(F)(F)F)cc2nc1Nc1ccc(F)cc1`
> 100 µM

Subsequent entry: `O=CNc1ccc(S(=O)(=O)c2ccc(NC=O)cc2)cc1`
> 100 µM

Subsequent entry: COc1cc(C2c3[nH]c4ccccc4c3[C@@H](Nc3ccc(C#N)cc3)[C@H]3COC(=O)N23)cc(OC)c1O (stereo partly drawn)
2.21 µM

Subsequent entry: `Nc1cc(S(=O)(=O)O)cc2ccc(S(=O)(=O)O)cc12`
> 100 µM

Subsequent entry: CC1(C(=O)O)C[C@](C)(C(=O)OCc2ccccc2)C[C@](C)(C(=O)OCc2ccccc2)C1 (stereo partly drawn)
73.7 µM

Subsequent entry: `Cc1nc(-c2cnc(NC(C)C)n(C)c2=O)ccc1Oc1ccnc(-c2cnn(C)c2)c1`
> 100 µM

Subsequent entry: `CCOC(=O)c1nc2ccccc2nc1Oc1ccc(C#N)cc1`
> 100 µM

Subsequent entry: C#CCNC(=O)NCCCCC(NC(C)=O)C(=O)NCc1ccccc1 (stereo not drawn)
> 100 µM

Subsequent entry: `N#Cc1ncn(CCO)c1N`
> 100 µM

Subsequent entry: CC(=O)OCC1OC(n2c(N)c(C#N)c(C)c(C#N)c2=S)C(OC(C)=O)C(OC(C)=O)C1OC(C)=O (stereo not drawn)
> 100 µM

Subsequent entry: `CC1=C(C(=O)NCc2ccccc2)C(c2ccccc2C)C(C(=O)NCc2ccccc2)=C(C)N1`
45.5 µM

Subsequent entry: `CCN(CC)c1ccc2nc3c4ccccc4c(=O)cc-3n(-c3ccccc3)c2c1`
3.85 µM

Subsequent entry: `CN(C)/C=N\c1nncc2[nH]cnc12`
> 100 µM
